molecular target: Luciferin 4-monooxygenase (Photinus pyralis) (UniProt P08659); assay: qHTS profiling assay for firefly luciferase inhibitor/activator using purifed enzyme and Km concentrations of substrates (counterscreen for miR-21 project); conditions: purified FLuc, luminescence inhibition; series mostly up to 57.5 µM; further: nearly all actives have a fitted effect of over 55% in size
Sequence (P08659 whole entry, looked up): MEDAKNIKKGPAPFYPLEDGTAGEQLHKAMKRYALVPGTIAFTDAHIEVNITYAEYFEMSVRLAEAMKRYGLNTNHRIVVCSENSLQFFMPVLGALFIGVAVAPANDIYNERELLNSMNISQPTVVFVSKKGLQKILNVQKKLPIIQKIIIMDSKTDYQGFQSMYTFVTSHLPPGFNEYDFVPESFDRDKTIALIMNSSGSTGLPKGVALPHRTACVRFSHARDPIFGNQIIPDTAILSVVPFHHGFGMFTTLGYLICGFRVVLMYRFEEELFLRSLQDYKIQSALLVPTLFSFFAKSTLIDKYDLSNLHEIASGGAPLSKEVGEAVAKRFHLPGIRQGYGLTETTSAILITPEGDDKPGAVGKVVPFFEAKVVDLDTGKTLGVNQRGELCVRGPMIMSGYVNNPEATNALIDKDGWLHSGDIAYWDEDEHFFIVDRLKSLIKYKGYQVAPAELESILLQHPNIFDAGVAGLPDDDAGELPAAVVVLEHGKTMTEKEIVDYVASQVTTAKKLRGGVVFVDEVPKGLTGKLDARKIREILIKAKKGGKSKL
Out of some 360,000 compounds screened, about 25,000 (6.9%) were called active. About 9% were inconclusive and are not listed. The call rests on the fitted dose curve; in most records, active means well fitted inhibition curve with a large enough effect; inconclusive means small, poorly fitted or top-dose-only effect; inactive means flat fitted curve, though single readings scatter. This is one part of a sample in which actives are shown more often than they occur.
API: response.call in 1 (yes) (active), 0 (no) (inactive)

Answered examples (6):
Cc1ccc(Cl)cc1NC(=O)CSc1nc2ccccc2nc1Cc1ccccc1 = 0 (no)
O=[N+]([O-])c1cc(S(=O)(=O)NCCc2ccccn2)ccc1Cl = 0 (no)
CCCc1nc2c(c(=O)c3ccccc3n2C)c(=O)n1-c1cc(C)cc(C)c1 = 1 (yes)
CCCc1nc2c(c(=O)c3ccccc3n2C)c(=O)n1C1CCCCCC1 = 0 (no)
COc1ccc(CCNCc2c(C(=O)O)c(C)n(Cc3cccc(C)c3)c2C)cc1OC = 0 (no)
Cc1ccc(S(=O)(=O)N(C)C)cc1NC(=O)C1Cc2ccccc2CN1C(=O)c1ccco1 (stereo not given) = 0 (no)

q: Query: recorded result category for `Cn1c2ccccc2c(=O)c2c(=O)n(Cc3ccco3)c(COc3ccccc3)nc21` in this test
a: 0 (no)

q: Query: recorded result category for O=C1OC(C(=O)Nc2cccc(Br)c2)Cc2ccccc21 (stereo not given) in this test
a: 0 (no)

q: Query: recorded result category for Cc1ccccc1CS(=O)(=O)CC1Nc2ccc(C(=O)NCc3ccc(Cl)cc3)cc2NC1=O (stereo not given) in this test
a: 0 (no)

q: Query: recorded result category for `COc1ccccc1C(=O)NCC(=O)NCCSc1ccc(Br)cc1` in this test
a: 0 (no)
